B1: TPR t1 (parent)
chain: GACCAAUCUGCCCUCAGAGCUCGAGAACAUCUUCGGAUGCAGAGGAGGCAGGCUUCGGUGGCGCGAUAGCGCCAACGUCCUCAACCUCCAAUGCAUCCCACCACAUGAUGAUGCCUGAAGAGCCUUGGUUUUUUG

variants of: B1; test: polymerase ribozyme fitness, log enrichment relative to wild type (log ratio); higher = more active; in vitro selection for triplet polymerase activity
So basically: polymerase ribozyme fitness (log ratio) at -1 or higher? That is label 1. Lower than -1? That is label 0.

{"variant-code": "U54A C79A G93U C114U G117A", "answer-label": "label 0"}
{"variant-code": "G61U U87C", "answer-label": "label 1"}
{"variant-code": "C72G A119G", "answer-label": "label 1"}
{"variant-code": "U9C C31U A37U", "answer-label": "label 0"}
{"variant-code": "C72G C80G U130C", "answer-label": "label 0"}
{"variant-code": "A43C G51U C82G A121U", "answer-label": "label 0"}
{"variant-code": "C20A C70U", "answer-label": "label 0"}
{"variant-code": "C8A C40U A103C", "answer-label": "label 0"}
{"variant-code": "C8G C86A A105C", "answer-label": "label 0"}
{"variant-code": "A37U G120C", "answer-label": "label 1"}
{"variant-code": "G52U C86G C89G G113C C114U A118G", "answer-label": "label 0"}
{"variant-code": "C12U A18G G63C C88G A90C C114A G122A", "answer-label": "label 0"}
{"variant-code": "A24G C34A C53U U87G U132A", "answer-label": "label 0"}
{"variant-code": "C15U G42C A46U", "answer-label": "label 0"}
{"variant-code": "G10U C49U C72G C82A C114A", "answer-label": "label 0"}
{"variant-code": "C11U U14A A84G", "answer-label": "label 0"}
{"variant-code": "G93U U133A", "answer-label": "label 1"}
{"variant-code": "U96A A121C U126A", "answer-label": "label 1"}
{"variant-code": "C72G C102U U106G", "answer-label": "label 0"}
{"variant-code": "G77U U78C A95U C123G", "answer-label": "label 1"}
{"variant-code": "C86A C115A G128A U133A", "answer-label": "label 0"}
{"variant-code": "U55C C73A C76G A121U", "answer-label": "label 1"}
{"variant-code": "A5C A43U U78C G93C", "answer-label": "label 0"}
{"variant-code": "C73G C101U U133A", "answer-label": "label 0"}
{"variant-code": "A6C G44U C64U U96A C104A", "answer-label": "label 0"}
{"variant-code": "C4U A5U C31G G45U U54A A68U G110A C114U", "answer-label": "label 0"}
{"variant-code": "U33G G63C C124A", "answer-label": "label 0"}
{"variant-code": "U7G C53U C62G C101G C102A G120U G127A", "answer-label": "label 0"}
{"variant-code": "C12U G39C G52C C53A C79A A119U", "answer-label": "label 0"}
{"variant-code": "U9A U55G C99U", "answer-label": "label 0"}
{"variant-code": "U55C A91U C94A", "answer-label": "label 0"}
{"variant-code": "C62A G120A U133A", "answer-label": "label 1"}
{"variant-code": "C73U U87C C89G G120A", "answer-label": "label 0"}
{"variant-code": "G17U C64U U78C", "answer-label": "label 0"}
{"variant-code": "C80A U129A", "answer-label": "label 0"}
{"variant-code": "G17A A18C C114G C124A G135U", "answer-label": "label 0"}
{"variant-code": "C4A A5C C13U G128C", "answer-label": "label 0"}
{"variant-code": "C11G A16C A37C G60U C89G C114G", "answer-label": "label 0"}
{"variant-code": "G10U A26U G45A", "answer-label": "label 0"}
{"variant-code": "C15G G110A", "answer-label": "label 0"}
{"variant-code": "G51U U116C", "answer-label": "label 0"}
{"variant-code": "G71U C124A", "answer-label": "label 1"}
{"variant-code": "C56U A103U", "answer-label": "label 0"}
{"variant-code": "A29G G120U U132A", "answer-label": "label 0"}
{"variant-code": "G36U C64U A119G", "answer-label": "label 1"}
{"variant-code": "U9C A41C G52A C98U U130G", "answer-label": "label 0"}
{"variant-code": "G10C U30C G71A G117A", "answer-label": "label 0"}
{"variant-code": "G69C U87A C123G", "answer-label": "label 1"}
{"variant-code": "C22U C28U C88G", "answer-label": "label 0"}
{"variant-code": "G110A A111U", "answer-label": "label 0"}
{"variant-code": "A74U U125A U131G", "answer-label": "label 1"}
{"variant-code": "A26G G113U", "answer-label": "label 0"}
{"variant-code": "G10U C11G G60C A95G", "answer-label": "label 1"}
{"variant-code": "C56G C73G", "answer-label": "label 0"}
{"variant-code": "C12U C20U C22A G45U C70U A83U A118U", "answer-label": "label 0"}
{"variant-code": "G44A C89U C104A U106A", "answer-label": "label 0"}
{"variant-code": "A5U G51U G77U", "answer-label": "label 0"}
{"variant-code": "C73A C124G", "answer-label": "label 1"}
{"variant-code": "C8G C104A", "answer-label": "label 1"}
{"variant-code": "C12G C80U", "answer-label": "label 1"}
{"variant-code": "A18G C124U", "answer-label": "label 1"}
{"variant-code": "C56A C79G C123G U133A", "answer-label": "label 1"}
{"variant-code": "G44C A46G", "answer-label": "label 1"}
{"variant-code": "G71A G117U", "answer-label": "label 0"}
{"variant-code": "A18G G57U G69A C85U G120U", "answer-label": "label 0"}
{"variant-code": "C53U C89U", "answer-label": "label 1"}
{"variant-code": "A46U C89U A111U", "answer-label": "label 0"}
{"variant-code": "C8U G93C C114U", "answer-label": "label 0"}
{"variant-code": "U7C C8G C12U G19C C115A G128C", "answer-label": "label 0"}
{"variant-code": "A41C C72G", "answer-label": "label 0"}
{"variant-code": "U54A C115U", "answer-label": "label 0"}
{"variant-code": "U9C A43G C89U", "answer-label": "label 1"}
{"variant-code": "C40G C56U", "answer-label": "label 0"}
{"variant-code": "G63U G71C G113A", "answer-label": "label 0"}
{"variant-code": "G10A G19A", "answer-label": "label 1"}
{"variant-code": "G36A G71U U106A", "answer-label": "label 0"}
{"variant-code": "C8G A16U A18U G58C C79A U109A", "answer-label": "label 0"}
{"variant-code": "A26C G61U U78C C80U A83G U116G", "answer-label": "label 0"}
{"variant-code": "G25U A121C", "answer-label": "label 0"}
{"variant-code": "C64U C82G C88U U131G", "answer-label": "label 1"}
{"variant-code": "A46G U55G", "answer-label": "label 1"}
{"variant-code": "C12U C72U", "answer-label": "label 1"}
{"variant-code": "C8G G110C", "answer-label": "label 0"}
{"variant-code": "C12U G47C G69U G107A", "answer-label": "label 0"}
{"variant-code": "G17U C49G C64U U131C", "answer-label": "label 0"}
{"variant-code": "G10U U38G A41G", "answer-label": "label 0"}
{"variant-code": "A27U A50C", "answer-label": "label 0"}
{"variant-code": "C8A G44A G57A G77A G110U C123U", "answer-label": "label 0"}
{"variant-code": "U14A C70A", "answer-label": "label 0"}
{"variant-code": "A27C C53G", "answer-label": "label 0"}
